All values here come from the supplement of paper PMC12764529.

assay comment: folding stability dG unfold (combined trypsin and chymotrypsin); higher = more stable
Provide the recorded folding stability dG unfold for the entries that follow.
I only need the number, in kcal/mol, no unit after it.

Prompt line: Suppose we examine the sequence SAKMSPEMRELVERLQDLYNENGYKVKIEMSNKPGMIRINVQMPNPRKKRKIKEALRGDGFPITRVEIYSAG [r14_284_TrROS] ; what folding stability dG unfold value has been reported?
Response line: 1.36

Prompt line: Suppose we examine the sequence SAGGMKIKIEVIDPDGKKRVIEIDASTPEEIKAALDALPPGAVVRIVVPSPELREALKEAGVDEVVELSAGG [r13_476_TrROS_Hall] ; what folding stability dG unfold value has been reported?
Response line: 3.87

Prompt line: Suppose we examine the sequence SAGGSAGGSAGGSPSETLEVTLADGTRLTVTRNADGSLTVTVEPAPPPPVVVFKSPEELSAGGSAGGSAGGS [r4_120_TrROS_Hall] ; what folding stability dG unfold value has been reported?
Response line: 1.14

Prompt line: Suppose we examine the sequence SAGGGPVTVTVTFKPPSTGLTSTVTLPFPNVSSYEEAKERAEELAKEAGGPIETITFTDPATGKAHPLSAGG [r13_771_JUSTAS] ; what folding stability dG unfold value has been reported?
Response line: 0.646

Prompt line: Suppose we examine the sequence SAGGSAGGSAGGPRTIYIPVKVEPDPNGKWKIDIEEIAKNLPDVKITSITPNYIKITFPASAGGSAGGSAGG [r11_771_TrROS] ; what folding stability dG unfold value has been reported?
Response line: 1.08

Prompt line: Suppose we examine the sequence SAGGETVTTESYQPLPTGPGLSFKNVVTTEEDVNNPGVKYTTTEVTAELVNPEGDESTTTTSTVTAASAGGS [r16_217_JUSTAS] ; what folding stability dG unfold value has been reported?
Response line: 0.112
